Cited source for all entries: patent US12509474B2

- TEST TARGET: human C1s protein (Homo sapiens, UniProt P09871)
- Construct: A104
- Sequence (P09871 16-688): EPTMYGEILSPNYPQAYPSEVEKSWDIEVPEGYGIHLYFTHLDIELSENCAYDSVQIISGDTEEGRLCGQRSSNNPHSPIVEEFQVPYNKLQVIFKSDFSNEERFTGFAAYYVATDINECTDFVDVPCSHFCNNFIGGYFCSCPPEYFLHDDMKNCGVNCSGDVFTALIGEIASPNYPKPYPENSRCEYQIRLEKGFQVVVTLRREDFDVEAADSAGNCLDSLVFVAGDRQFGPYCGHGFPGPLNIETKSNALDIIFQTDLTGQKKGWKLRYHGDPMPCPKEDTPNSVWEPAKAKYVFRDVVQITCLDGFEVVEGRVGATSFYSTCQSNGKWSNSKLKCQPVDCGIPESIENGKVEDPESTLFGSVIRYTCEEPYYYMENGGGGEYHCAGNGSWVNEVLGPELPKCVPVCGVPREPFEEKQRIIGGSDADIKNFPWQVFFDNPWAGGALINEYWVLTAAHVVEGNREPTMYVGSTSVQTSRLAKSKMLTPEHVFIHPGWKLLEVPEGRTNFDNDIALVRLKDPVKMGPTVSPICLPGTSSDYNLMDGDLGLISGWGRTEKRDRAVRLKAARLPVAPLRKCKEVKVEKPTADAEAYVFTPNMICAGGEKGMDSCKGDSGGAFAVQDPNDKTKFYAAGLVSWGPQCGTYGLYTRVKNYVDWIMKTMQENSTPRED
- TEST DESCRIPTION: C1s enzymatic assay (hydrolysis of YLGR-Rh110-dPro)
- Format: biochemical
- MEASUREMENT PARAMETERS: substrate YLGR-Rh110-dPro 20 μM, 15 min pre-incubation, 60 min RT, fluorescence, read-out: hC1s pIC50 (converted)
Structures can show the parent of a compound that is named as a salt.
Known IC50 of a selection of compounds
Output spec: scalar in nM, unitless text.

1. Nc1cnnc2cc(-c3cc(B(O)O)ccc3OCC3CNC(=O)C3)ccc12 (single isomer, unassigned) [Example 154] :: 1.78

QUERY: # IC50 lookup, item Cc1nnc(N)c2ccc(-c3cc(B(O)O)ccc3NC(=O)CCC(C)C)cc12 [Example 61, Formic Acid Salt]
RESULT: 6.76

QUERY: Sample Cc1nnc(N)c2ccc(-c3cccc(B(O)O)c3)cc12 [Example 4] — what was its IC50?
RESULT: 1.51

QUERY: Need IC50, item Nc1nnc(C2CC2)c2cc(-c3cccc(B(O)O)c3)ccc12 [Example 11, Formic Acid Salt]
RESULT: 214

* * *

IC50 values, listed per item
- TEST TARGET: human C1s protein (Homo sapiens, UniProt P09871)
- Construct: A104
- TEST DESCRIPTION: C1s enzymatic assay (hydrolysis of YLGR-Rh110-dPro)
- Format: biochemical
- MEASUREMENT PARAMETERS: substrate YLGR-Rh110-dPro 20 μM, 15 min pre-incubation, 60 min RT, fluorescence, read-out: hC1s pIC50 (converted)
Counter-ions that a name gives are not always drawn.
Response body: numeric value in nM, unit text excluded.

1. Cc1nnc(N)c2ccc(-c3ccc(NC(=O)c4ccccc4)c(B(O)O)c3)cc12 :: 3.8
2. CC1(C)Cc2cc(B(O)O)cc(-c3ccc4c(N)cnnc4c3)c2O1 [Example 170, Formic Acid Salt] :: 1.07
3. Cc1nnc(N)c2ccc(-c3cc(B(O)O)ccc3NC(=O)CC(C)C)cc12 [Example 59, Formic Acid Salt] :: 3.24
4. COc1cc(C(F)(F)F)c(B(O)O)cc1-c1ccc2c(N)nnc(C)c2c1 [Example 37, Formic Acid Salt] :: 1.58
5. Nc1cnnc2cc(-c3cc(B(O)O)cc4c3OCC4)ccc12 [Example 138, Formic Acid Salt] :: 1.62

Moving on to the next compound.
QUERY: # lookup: IC50 of Cc1nc2cc(B(O)O)cc(-c3ccc4c(N)cnnc4c3)c2o1 [Example 122, Formic Acid Salt]
RESULT: 1.17

* * *

- TEST TARGET: human C1s protein (Homo sapiens)
- Construct: A104
- TEST DESCRIPTION: C1s enzymatic assay (hydrolysis of YLGR-Rh110-dPro)
- Type: biochemical
- MEASUREMENT PARAMETERS: substrate YLGR-Rh110-dPro 20 μM, 15 min pre-incubation, 60 min RT, fluorescence, read-out: hC1s pIC50 (converted)
Counter-ions that a name gives are not always drawn.
Hi! Just check whether IC50 is below 3 nM. Below gives yes (1), equal or above gives no (0).

Answered examples (3):
1) Cc1nnc(N)c2ccc(-c3ccc4c(c3)B(O)OC4)cc12 [Example 14, Formic Acid Salt] :: no (0)
2) Nc1cnnc2cc(-c3cc(B(O)O)ccc3C(=O)N3CCCC3)ccc12 :: no (0)
3) CNc1cnnc2cc(-c3cc(B(O)O)ccc3OC)ccc12 :: no (0)

QUERY: Strictly below 3 nM: is that where IC50 of Cc1nc2c(-c3ccc4c(N)nnc(C)c4c3)cc(B(O)O)cc2o1 [Example 125, Formic Acid Salt] sits?
RESULT: no (0)

QUERY: Please let me know if "Cc1nnc(N)c2ccc(-c3cc(B(O)O)ccc3C#N)cc12" shows IC50 below 3 nM.
RESULT: yes (1)

QUERY: A record lists "Cc1nnc(N)c2ccc(-c3ccc(C(F)(F)F)c(B(O)O)c3)cc12" . Is its IC50 below 3 nM?
RESULT: yes (1)

QUERY: Given the entry Nc1cnnc2cc(-c3cc(B(O)O)ccc3N3CCCC3)ccc12 [Example 150, Formic Acid Salt] , would its reported IC50 be below 3 nM?
RESULT: no (0)

QUERY: IC50 under 3 nM? Item: Nc1cnnc2cc(-c3cc(B(O)O)ccc3OCC3CNC(=O)C3)ccc12 (single isomer, unassigned) [Example 155]
RESULT: no (0)

QUERY: Dear colleague, could you confirm whether IC50 of "Cc1nnc(N)c2ccc(-c3ccc(NC(=O)c4ccccc4Cl)c(B(O)O)c3)cc12" falls below 3 nM? Thanks.
RESULT: yes (1)

QUERY: Does the reported IC50 of the following molecule sit strictly below 3 nM? "COc1ccc(B(O)O)cc1-c1cc2nncc(N)c2cc1F"
RESULT: no (0)

QUERY: Here's an entry: "COc1ccc(B(O)O)cc1-c1cnc2c(N)cnnc2c1" . Is its IC50 below 3 nM?
RESULT: no (0)

QUERY: Please let me know if "Nc1cnnc2cc(-c3cc(B(O)O)cc4c3OC(F)(F)O4)ccc12" shows IC50 below 3 nM.
RESULT: yes (1)

QUERY: Lab log: compare recorded IC50 with 3 nM; is it strictly lower for "COCCOCCOc1ccc(B(O)O)cc1-c1ccc2c(N)cnnc2c1" ?
RESULT: yes (1)

QUERY: Say whether its IC50 is strictly beneath 3 nM. Entry: "Nc1cnnc2cc(-c3cc(B(O)O)ccc3N3CCNS3(=O)=O)ccc12"
RESULT: no (0)
